The entries below are paired with their reported hCCL1 (100 nM) residual response, Protocol #2, mAb 0.08 µg/mL.
study system: human CCR8 (human, UniProt P51685 1-355)
assay remarks: cell-based or functional assay
Report the figure in % without appending any unit label.

binder | unit abbreviation | recorded result
3-53 (antibody, V domains shown) VH: QVQVQQSGAELARPGASVKMSCKASGYTFTTYAMHWVKQRPGQGLEWIGHINPSSGYSNYNQKFKDKATLTADKSSSTAYMQLSSLTSEDSAVYYCARSEVRRGYFDVWGAGTTVTVSS VL: DIQMTQTTSSLSASLGDRVTISCRTSQDIRNYLNWYQQKPDGTVKLLISYTSRLHSGVPSRFSGSGSGTDYSLTISNLEQEDFATYFCQQGNTLPPTFGGGTRVEIK | % | 52

Would you kindly look at the next entry?
Specify hCCL1 (100 nM) residual response, Protocol #2, mAb 0.08 µg/mL for 3-29 (antibody, V domains shown) VH: QVHLVETGGGLVRPGNSLKLSCVTSGFTLSNYRMHWLRQPPGKRLEWIAVIKVKSDNYGANYAESVKGRFTISRDDAKSSVYLQMNRLREEDTATYYCSRPDGFSPFVYWGQGTLVTVSA VL: DIKMTQSPSSMYASLGERVTITCKASQDINSYLSWFQQKPGKSPKTLIYRANRLVDGVPSRFSGSGSGQDYFLTISSLEYEDMGIYYCLQYGEFPPTFGAGTKLELK and stop.
73

// data source = patent US20260234276A1
